- TGT: HLA-A*02:02
- ASSAY NOTES: IEDB peptide-MHC binding, purified MHC/competitive/radioactivity; bounds were set here for any values at or beyond the usual limits of such assays
- APPLIED CONDITIONS: source organism: Hepacivirus hominis
RECORDED ENDPOINT: pIC50
Convention used: pIC50 is expressed as -log10 of the molar concentration.

// known answers, use as guide
Reported HLA-A*02:02 pIC50 for item ALLSCLTTPA was 6.36

Reported HLA-A*02:02 pIC50 for item LLSCISVPV was 8.85

GET /values?item= VLIVMLLFA &system= HLA-A*02:02 returns pIC50: 5.79

Lab note: sequence VLAGYGAGI tested on HLA-A*02:02; recorded pIC50 was 7.96

Note to self: pIC50 of KIMSGEKPSV with HLA-A*02:02 was 6.39

I looked up LLALLSCISV and its pIC50 for HLA-A*02:02 was 9.11

Param item: SMMSFSAAL ; param system: HLA-A*02:02; output pIC50: 8.29

Entry WMMLLIAQA , tested on HLA-A*02:02, has a reported pIC50 of 7.28

Considering GLLGCIITSL , its pIC50 with HLA-A*02:02 was recorded as 7.46

Item: MLVNGDDLVV | System: HLA-A*02:02 | pIC50: 7.27

New cases:
# lookup: YLYGIGSAVV on HLA-A*02:02, pIC50 = 7.92
